target: Genome polyprotein (Poliovirus type 1 (strain Mahoney)) (UniProt P03300); experiment: poliovirus RdRp elongation inhibitors, primary screen, biochemical, fluorescence polarization, total intensity (AID 588519); details: poliovirus polymerase elongation, compound at 16.7 µg/mL
Sequence (P03300 1749-2209 limits assumed): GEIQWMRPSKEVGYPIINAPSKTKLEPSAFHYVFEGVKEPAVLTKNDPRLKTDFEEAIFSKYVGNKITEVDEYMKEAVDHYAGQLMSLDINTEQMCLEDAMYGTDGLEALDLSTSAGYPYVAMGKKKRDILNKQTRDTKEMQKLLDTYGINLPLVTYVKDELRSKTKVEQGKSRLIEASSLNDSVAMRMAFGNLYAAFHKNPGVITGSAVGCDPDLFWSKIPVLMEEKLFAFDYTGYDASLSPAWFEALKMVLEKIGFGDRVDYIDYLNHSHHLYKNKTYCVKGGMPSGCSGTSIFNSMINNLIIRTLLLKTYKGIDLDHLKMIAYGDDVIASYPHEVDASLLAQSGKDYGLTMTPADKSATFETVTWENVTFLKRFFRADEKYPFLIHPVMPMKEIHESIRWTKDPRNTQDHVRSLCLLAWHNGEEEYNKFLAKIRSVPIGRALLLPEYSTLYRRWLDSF
The whole screen tested about 150,000 compounds, of which about 1,000 (0.67%) were called active. No stated cut-off is given here; in the data, active means % elongation below about 90%; inactive means the rest, inconclusive results apart. What follows is part of a selection rich in actives, with near analogues and random picks from the rest.
Select the matching outcome among active, inactive

compound: O=c1c(C=Nc2cc(Cl)ccc2O)c(O)n(C2CCCCC2)c(=O)n1C1CCCCC1
label-value: inactive

compound: CC(C)OC(=O)C(C)n1cnc2sc(-c3ccccc3)cc2c1=O (stereo not drawn)
label-value: inactive

Asked: Called result for Cc1ccc2nc(C)cc(Nc3ccccc3)c2c1
Given back: inactive

Asked: What did the test return for CC(=O)Nc1nc2ccccc2n1Cc1ccc(C)cc1 ?
Given back: inactive

Asked: Which outcome did this test record for the compound Cc1ccc(S(=O)(=O)c2no[n+]([O-])c2S(=O)(=O)c2ccc(C)cc2)cc1 ?
Given back: active

Asked: Which outcome was assigned to CCC(=O)c1ccc(OCC(=O)NC2CCCCC2C)cc1 (stereo not drawn) in this test?
Given back: inactive

Asked: Write down the call the test reported for this compound. Item: Cc1ccc(Cn2c(CNC(=O)c3ccccc3)nc3ccccc32)cc1
Given back: inactive

* * *

target: Genome polyprotein (Poliovirus type 1 (strain Mahoney)); assay: poliovirus RdRp elongation inhibitors, primary screen, biochemical, fluorescence polarization, total intensity (AID 588519); conditions: poliovirus polymerase elongation, stronger effect = lower value, compound at 16.7 µg/mL
Among all 150,000 compounds or so, about 1,000 (0.67%) were called active. This is one part of a sample in which actives are shown more often than they occur.
Please go through the items and note down their % elongation.
Numbers only, in %.

Example compounds with recorded % elongation:
compound: Cc1ccc(NC(=S)Nc2ccc(C)cc2)cc1
% elongation [%]: 76
//
compound: O=C1Nc2ccccc2N(c2ccccc2)N1
% elongation [%]: 101
//
compound: CC(C)(C)NC(=O)C1CCN(S(=O)(=O)c2ccccc2)CC1
% elongation [%]: 101
//
compound: CC(C)(C)NCC(O)COc1c(Br)ccc2c1sc1nc3n(c(=O)c12)CCCCC3 (configuration not stated)
% elongation [%]: 69

Give % elongation for each listed item.
1. Cc1ccc(-n2c(C)cc(C(=O)CN3CC(C)OC(C)C3)c2C)cc1 (configuration not stated)
2. Cc1ccc2oc(=O)c3cc(C(=O)NC4CCCC4)sc3c2c1
3. COc1ccc(Cl)cc1N(C)C(=O)c1cc2c(=O)oc3ccc(C)cc3c2s1
4. CN(C)C(=O)CCSc1nc2cc(Cl)ccc2o1
5. COc1ccc(-c2cc(C(=O)Nc3sc4c(c3C(N)=O)CCCC4)no2)cc1

Given back:
100
104
107
103
100

Lab note: each compound below needs its % elongation filled in.
1. Cc1ccc(NC(=O)CC(=O)Nc2ccc(C)cc2)cc1
2. CCSc1nnc(NC(=O)/C=C/c2ccc3c(c2)OCCO3)s1
3. O=C(CCC(=O)c1ccccc1)c1ccccc1

Given back:
1: 106; 2: 85; 3: 100

* * *

Answer each item with its documented % elongation.
molecular target: Genome polyprotein (Poliovirus type 1 (strain Mahoney)); test: poliovirus RdRp elongation inhibitors, primary screen, biochemical, fluorescence polarization, total intensity (AID 588519); conditions: poliovirus polymerase elongation, measured here: total intensity read-out, stronger effect = lower value, compound at 16.7 µg/mL
The campaign covered roughly 150,000 compounds. About 1,000 (0.67%) were called active. Many of the other results were omitted from the sample, so actives are more common in it than they were.
Numbers only, in %.

molecule: CCOc1ccc(S(=O)(=O)NCCSc2ccccc2)cc1
system: Genome polyprotein (Poliovirus type 1 (strain Mahoney))
measured-property: % elongation
data-value: 103

molecule: O=C(COC(=O)C1CCC(=O)N1)Nc1nc(-c2ccccc2)cs1 (configuration not stated)
system: Genome polyprotein (Poliovirus type 1 (strain Mahoney))
measured-property: % elongation
data-value: 104

molecule: COc1ccc(S(=O)(=O)NCCSc2nnnn2-c2ccccc2)cc1
system: Genome polyprotein (Poliovirus type 1 (strain Mahoney))
measured-property: % elongation
data-value: 73

molecule: Cc1ccc(N2C(=O)NC(=O)/C(=C\c3ccco3)C2=O)c(C)c1
system: Genome polyprotein (Poliovirus type 1 (strain Mahoney))
measured-property: % elongation
data-value: 97

Go through the items and report each one's % elongation.
1. CS(=O)(=O)C1=NSC2=NC(=O)/C(=C\c3ccco3)C(=N)N21
2. O=C1CCC/C1=C1\SCC(=O)N1c1ccccc1
3. CCNC(=O)C1CCCN(S(=O)(=O)N(CC)c2ccc(OCC)cc2)C1 (configuration not stated)

Given back:
1: 23; 2: 99; 3: 105
